Assay: physchem
Assay type: physicochemical
Details: thermodynamic from solid
Where a name gives a salt, the structure may show the parent alone.
QUANTITY: solubility

Looking for the measured solubility of O=C(NCCO[N+](=O)[O-])c1cccnc1 [nicorandil HCl form A, nicorandil hydrochloride] , can you help?
> 48 mg/mL
